Tested on: HCC-2998 colon
Protocol text: NCI-60 one-dose screen, 48 h
Condition set: 10 µM unless noted
Procedure: Growth inhibition of the HCC-2998 human tumor cell line is measured as a screen for anti-cancer activity. Cells are grown in 96 well plates and exposed to the test compound for 48 hours. Compounds are tested at a single concentration, which is 10^-5 M for most compounds. The reported endpoint is percent growth (GI% or GIPRCNT), where numbers from 0 - 100% represent growth inhibition, and numbers from -100% - 0 represent cell death. For example, a value of 40 represents 60% growth inhibition. […]
About 83,000 compounds went through this panel and 20% of them were active in at least one assay; those are over-represented in the sample as a whole. The source made the active and inactive calls. The calls were made as follows: active = growth percent below 10; inactive = the rest.
Outcome codes: 1 = active, 0 = inactive

[[record]]
molecule = "COc1ccc(/C=N/NC(=O)c2cn(C3CC3)c3c(OC)c(N4CC5CCCNC5C4)c(F)cc3c2=O)cc1 (stereo unspecified)"
target_desc = "HCC-2998 colon"
assigned_class = 0

[[record]]
molecule = "CCN(CC)c1ccc(NC2=C(Cl)C(=O)c3nc(C)ccc3C2=O)cc1"
target_desc = "HCC-2998 colon"
assigned_class = 1

[[record]]
molecule = "C[C@H](CCC(=O)NCc1ccc(C(=O)Nc2ccccc2N)cc1)[C@H]1CC[C@H]2[C@@H]3[C@@H](O)C[C@@H]4C[C@H](O)CC[C@]4(C)[C@H]3CC[C@]12C"
target_desc = "HCC-2998 colon"
assigned_class = 0

[[record]]
molecule = "CCN(CC)c1ccc2c(c1)Oc1nc(N)c(C#N)c(N)c1C2Sc1ccc(F)cc1 (stereo unspecified)"
target_desc = "HCC-2998 colon"
assigned_class = 1

[[record]]
molecule = "Cc1ccc(NC(=O)c2ccc(CN3CCN(C)CC3)cc2)cc1Oc1ccc(-c2[nH]nc3ncnc(N)c23)cc1"
target_desc = "HCC-2998 colon"
assigned_class = 0

[[record]]
molecule = "CC(=O)Nc1cccc(Nc2nc(N[C@H](C)c3ccccc3)c3ccccc3n2)c1"
target_desc = "HCC-2998 colon"
assigned_class = 0

[[record]]
molecule = "CCOc1cccc(-c2nc3sccn3c2-c2ccnc(S(C)(=O)=O)n2)c1"
target_desc = "HCC-2998 colon"
assigned_class = 0

[[record]]
molecule = "c1ccc(C(c2nc3ncncc3[nH]2)N2CSc3nc4ccccc4n3C2)cc1 (stereo unspecified)"
target_desc = "HCC-2998 colon"
assigned_class = 0

[[record]]
molecule = "O=C(CCn1c[n+](CC(=O)c2ccc(F)cc2)c2ccccc21)Nc1cccc2cccnc12"
target_desc = "HCC-2998 colon"
assigned_class = 0

[[record]]
molecule = "CC(C)(C)c1ccc(CC(=O)Nc2sc3c(c2C(N)=O)CCC(=O)C3)cc1"
target_desc = "HCC-2998 colon"
assigned_class = 0

[[record]]
molecule = "CC1(C)[C@@H](O)CC[C@]2(C)[C@H]3CC[C@@H]4[C@H]5[C@H](C(=O)/C=C\\c6ccccn6)CC[C@]5(O)CC[C@@]4(C)[C@]3(C)CC[C@@H]12"
target_desc = "HCC-2998 colon"
assigned_class = 0

[[record]]
molecule = "CCCSc1nc(Nc2ccc(/C(C)=N\\NC(N)=S)cc2)c(C#N)c(-c2ccccc2)n1"
target_desc = "HCC-2998 colon"
assigned_class = 0

[[record]]
molecule = "CC(C)C[C@@H]1N[C@@]2(C(=O)Nc3ccccc32)[C@@H](c2ccc(F)cc2)[C@@H]1C(=O)c1ccc(O)cc1"
target_desc = "HCC-2998 colon"
assigned_class = 0

[[record]]
molecule = "COc1c(N2CC3CCCNC3C2)c(F)cc2c(=O)c(C(=O)N/N=C/c3ccc(N(C)C)cc3)cn(C3CC3)c12 (stereo unspecified)"
target_desc = "HCC-2998 colon"
assigned_class = 0

[[record]]
molecule = "CNc1ncc2cc(-c3ccc(-c4ncccc4F)cc3Cl)c(=O)n(CC3OCC(N)CO3)c2n1 (stereo unspecified)"
target_desc = "HCC-2998 colon"
assigned_class = 0

[[record]]
molecule = "FC(F)(F)c1cc(Nc2cccc(Oc3ccc(NC4=NCCN4)nc3)c2)ccc1Cl"
target_desc = "HCC-2998 colon"
assigned_class = 1

[[record]]
molecule = "O=c1[nH]c2ccccc2cc1CSc1ccccc1Nc1nccc(-c2ccc(Cl)cc2)n1"
target_desc = "HCC-2998 colon"
assigned_class = 0

[[record]]
molecule = "CCc1cccc(NC(=O)CNc2cc(S(=O)(=O)N(C)C)cc(C)c2C)c1"
target_desc = "HCC-2998 colon"
assigned_class = 0

[[record]]
molecule = "CC(=O)O[C@@H]1C(=O)N(c2cnccn2)[C@H]1c1ccccc1[N+](=O)[O-]"
target_desc = "HCC-2998 colon"
assigned_class = 0

[[record]]
molecule = "Nc1nc(N)c2c(n1)NC(c1ccc(Cl)cc1)CC(c1ccc(Nc3nc(NCCO)nc(N4CCOCC4)n3)cc1)=N2 (stereo unspecified)"
target_desc = "HCC-2998 colon"
assigned_class = 0

[[record]]
molecule = "CC(=O)c1nnn(-c2c(C(=O)n3nc(C)cc3C)sc(=S)n2-c2ccccc2)c1C"
target_desc = "HCC-2998 colon"
assigned_class = 0

[[record]]
molecule = "COc1c(N2CC3CCCNC3C2)c(F)cc2c(=O)c(C(=O)N/N=C/c3ccc(F)cc3)cn(C3CC3)c12 (stereo unspecified)"
target_desc = "HCC-2998 colon"
assigned_class = 0

[[record]]
molecule = "C[C@@H](Nc1ncnc2ccc(-c3cnc(Cl)c(NS(C)(=O)=O)c3)cc12)c1ccccc1"
target_desc = "HCC-2998 colon"
assigned_class = 0

[[record]]
molecule = "COc1cc(Cn2cc3c(c2)-c2onc(CN4CCOCC4)c2CC3)cc(OC)c1OC"
target_desc = "HCC-2998 colon"
assigned_class = 0

[[record]]
molecule = "COC(=O)c1[nH]nc2c1C1(C(=O)N(C)c3ccccc31)C(C#N)=C(N)O2 (stereo unspecified)"
target_desc = "HCC-2998 colon"
assigned_class = 0

[[record]]
molecule = "COc1ccc(NC(=O)CSc2nnc(-c3ccc4nc(-c5ccccc5)[nH]c4c3)o2)cc1"
target_desc = "HCC-2998 colon"
assigned_class = 0

[[record]]
molecule = "CCn1c2ccccc2c2cc(-n3nncc3-c3ccccc3)ccc21"
target_desc = "HCC-2998 colon"
assigned_class = 0

[[record]]
molecule = "COc1cccc(N2CCN(c3ncnc4c3[nH]c3ccc(F)cc34)C[C@H]2C)c1"
target_desc = "HCC-2998 colon"
assigned_class = 0

[[record]]
molecule = "O=S(=O)(Oc1ccc(-c2nnc(Nc3ccccc3)s2)cc1)C(F)(F)C(F)(F)C(F)(F)C(F)(F)C(F)(F)C(F)(F)F"
target_desc = "HCC-2998 colon"
assigned_class = 0

[[record]]
molecule = "O=C(CN1CCN(c2cc(=O)n(-c3ccccc3)c3ccccc23)CC1)Nc1cccc(C(F)(F)F)c1"
target_desc = "HCC-2998 colon"
assigned_class = 0

[[record]]
molecule = "N#Cc1c(-c2cccs2)cc(-c2cnccn2)nc1SCC(=O)Nc1ccc(Br)cc1"
target_desc = "HCC-2998 colon"
assigned_class = 0

[[record]]
molecule = "O=C(NCCN1CCCC1)c1ccc(-c2nc3ccc4[nH]ncc4c3c3c2CCCC3)cc1"
target_desc = "HCC-2998 colon"
assigned_class = 1

[[record]]
molecule = "CC(C)(O)c1cncc(-c2ccc3ncnc(NCc4ccccc4)c3c2)c1"
target_desc = "HCC-2998 colon"
assigned_class = 0

[[record]]
molecule = "Cc1ccc2c(c1)C(=O)/C(=C/c1cccc(F)c1)S2"
target_desc = "HCC-2998 colon"
assigned_class = 0

[[record]]
molecule = "O=C(O)c1ccc(-n2cc(CNc3cccc(Cl)c3)c(-c3ccc(F)cc3)n2)cc1"
target_desc = "HCC-2998 colon"
assigned_class = 0

[[record]]
molecule = "O=C(NNc1nc2cc(F)ccc2n2cccc12)c1ccncn1"
target_desc = "HCC-2998 colon"
assigned_class = 0


All values here come from PubChem BioAssay (NCI).
